Experiment: Compression strength (hardening property) of powder stored under load for 2 months
Format: physicochemical
Settings: Load 200 (table head [Kg]; text 200 g/cm^2); 20-30° C., relative humidity 40-70%
Procedure: Method for the Measurement of Compression Strength (1) A test sample (500 g) is put in a poly-ethylene bag of 20 cm×20 cm in a room at a temperature of 20-30° C. and a relative humidity of 40-70%. The powder is levelled to an area of 20 cm×20 cm and air is forced out of the bag, and, then, the bag is sealed. This bag is further put in a kraft bag and this kraft bag is sealed. (2) The kraft bag of (1) is placed horizontally on a flat plate and a plate is put thereon. […]
Label Fulfilled when Compression strength after stored for 2 months is strictly below 1 Kg/cm^2; otherwise label Not fulfilled.

Known results for molecules:
O=C([O-])CN(CCS(=O)(=O)[O-])CC(=O)[O-].[Na+].[Na+].[Na+]	Not fulfilled
O=C(O)CCN[C@@H](CC(=O)O)C(=O)O [Example 14, (S)-aspartic acid-N-monopropionic acid]	Fulfilled
O=C([O-])C[C@H](NCCCN[C@@H](CC(=O)[O-])C(=O)[O-])C(=O)[O-].[Na+].[Na+].[Na+].[Na+]	Not fulfilled

Ask: Problem: For the molecule C[C@@H](C(=O)O)N(CC(=O)O)CC(=O)O [Example 16, (S)-α-alanine-N,N-diacetic acid] , is Compression strength after stored for 2 months under 1 Kg/cm^2?
Result: Fulfilled

---

Listed here: items and their measured Compression strength after stored for 2 months.
test: Compression strength (hardening property) of powder stored under load for 2 months; format: physicochemical; details: Load 100 (table head [Kg]; text 100 g/cm^2); 20-30° C., relative humidity 40-70%

Would you please look over these solved cases?
O=C([O-])C[C@H](NCCN[C@@H](CC(=O)[O-])C(=O)[O-])C(=O)[O-].[Na+].[Na+].[Na+].[Na+] [compound 17, reference compound]	2.9 Kg/cm^2
O=C([O-])CC(NCCCNC(CC(=O)[O-])C(=O)[O-])C(=O)[O-].[Na+].[Na+].[Na+].[Na+] (stereo not shown) [Example 53]	0.8 Kg/cm^2
O=C([O-])C[C@@H](C(=O)[O-])N(CC(=O)[O-])CC(=O)[O-].[Na+].[Na+].[Na+].[Na+] [Example 7]	1.3 Kg/cm^2

Ask: Specify measured Compression strength after stored for 2 months for O=C([O-])C[C@@H](C(=O)[O-])N(CC(=O)[O-])CC(=O)[O-].[Na+].[Na+].[Na+].[Na+] [compound 3, reference compound] .
Result: 3.2 Kg/cm^2

Ask: Look up and state reported Compression strength after stored for 2 months for O=C(O)C[C@H](NCCCN[C@@H](CC(=O)O)C(=O)O)C(=O)O [compound 24, (S,S)-1,3-propanediaminedisuccinic acid, reference compound]
Result: 2.8 Kg/cm^2

Ask: Report measured Compression strength after stored for 2 months; entry is O=C(O)CN[C@@H](CC(=O)O)C(=O)O [compound 5, (S)-aspartic acid-N-monoacetic acid, reference compound]
Result: 2.8 Kg/cm^2

Ask: Retrieve Compression strength after stored for 2 months measured for CN(CC(=O)O)CC(=O)O [compound 13, N-methyliminodiacetic acid, reference compound] and print it.
Result: 2.7 Kg/cm^2

Ask: Answer with the recorded Compression strength after stored for 2 months of O=C(O)C[C@H](NCCN[C@@H](CC(=O)O)C(=O)O)C(=O)O [Example 67, (S,S)-ethylenediaminedisuccinic acid] only.
Result: 1.1 Kg/cm^2

Ask: Look up Compression strength after stored for 2 months of O=C([O-])CCN[C@@H](CC(=O)[O-])C(=O)[O-].[Na+].[Na+].[Na+] [Example 6] and report it.
Result: 1.2 Kg/cm^2

Ask: Name the recorded Compression strength after stored for 2 months of the compound listed here: O=C([O-])C[C@H](NCCCN[C@@H](CC(=O)[O-])C(=O)[O-])C(=O)[O-].[Na+].[Na+].[Na+].[Na+] [Example 54]
Result: 0.9 Kg/cm^2

Ask: Tell me Compression strength after stored for 2 months reported for O=C([O-])CN(CC(=O)[O-])c1ccccc1C(=O)[O-].[Na+].[Na+].[Na+] [compound 11, reference compound]
Result: 2.5 Kg/cm^2

Ask: Let me know recorded Compression strength after stored for 2 months for O=C([O-])CC(NCCNC(CC(=O)[O-])C(=O)[O-])C(=O)[O-].[Na+].[Na+].[Na+].[Na+] (stereo not shown) [compound 16, tetrasodium ethylenediaminedisuccinate, reference compound] , thanks.
Result: 2.8 Kg/cm^2

Ask: Consider the compound O=C([O-])C[C@H](NCCCN[C@@H](CC(=O)[O-])C(=O)[O-])C(=O)[O-].[Na+].[Na+].[Na+].[Na+] [compound 19, reference compound] . State its measured Compression strength after stored for 2 months.
Result: 2.9 Kg/cm^2
